# target-desc: STAT6 (Homo sapiens (Human), UniProt P42226)
# Sequence (P42226 whole entry): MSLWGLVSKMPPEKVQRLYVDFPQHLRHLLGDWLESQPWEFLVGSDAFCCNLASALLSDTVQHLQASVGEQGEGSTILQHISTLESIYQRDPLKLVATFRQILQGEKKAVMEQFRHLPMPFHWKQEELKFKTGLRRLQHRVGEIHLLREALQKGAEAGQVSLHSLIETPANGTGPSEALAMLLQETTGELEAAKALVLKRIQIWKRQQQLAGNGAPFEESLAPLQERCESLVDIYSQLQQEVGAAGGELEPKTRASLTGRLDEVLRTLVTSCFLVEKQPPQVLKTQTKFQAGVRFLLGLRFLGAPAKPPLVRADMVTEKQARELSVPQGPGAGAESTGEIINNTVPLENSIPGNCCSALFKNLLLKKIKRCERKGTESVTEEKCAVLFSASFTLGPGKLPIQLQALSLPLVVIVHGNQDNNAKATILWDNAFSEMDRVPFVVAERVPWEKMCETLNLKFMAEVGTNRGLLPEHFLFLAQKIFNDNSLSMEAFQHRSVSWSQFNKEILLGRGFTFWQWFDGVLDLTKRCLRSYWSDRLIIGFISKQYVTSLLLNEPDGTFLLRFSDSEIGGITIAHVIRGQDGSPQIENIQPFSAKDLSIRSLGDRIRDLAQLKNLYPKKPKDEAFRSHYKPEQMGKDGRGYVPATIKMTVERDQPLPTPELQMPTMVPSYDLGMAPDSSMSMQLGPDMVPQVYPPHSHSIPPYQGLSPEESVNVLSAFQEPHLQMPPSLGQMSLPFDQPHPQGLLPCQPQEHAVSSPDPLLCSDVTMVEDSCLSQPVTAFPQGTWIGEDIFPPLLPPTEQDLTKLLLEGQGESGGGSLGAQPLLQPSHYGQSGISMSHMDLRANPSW
# measurement-notes: STAT6 degrader assay (HiBiT, HeLa LgBiT clone 4.14)
# Assay type: cell-based
# details: HeLa LgBiT clone 4.14, 4-24 h; geometric mean; given for compounds with >80% Emax; read-out: STAT6 degradation DC50
Readings of DC50 for the listed molecules

molecule	unit-abbreviation	DC50
CNc1ccc(-c2ccnc3c2cc([C@H](C)N2CCC(c4ccc(C(=O)N5CCC(CN6CCN(Cc7ccc8c(c7)n(C7CC7)c(=O)n8[C@@H]7CCC(=O)NC7=O)C[C@@H]6C)CC5)cc4)CC2)n3C)cn1 (single isomer, unassigned) [Example 3h27]	nM	1.8
C[C@H]1CN(Cc2ccc3c(c2)C(C)(C)C(=O)N3[C@@H]2CCC(=O)NC2=O)CCN1CC1CCN(C(=O)c2ccc(C3CCN([C@@H](C)c4cc5c(-c6ccc(N)nc6)ccnc5n4C)CC3)cc2)CC1 [Example 3h32]	nM	2.9
CC[C@H]1CN(Cc2ccc3c(c2)n(C2CC2)c(=O)n3[C@@H]2CCC(=O)NC2=O)CCN1CC1CCN(C(=O)c2ccc(C3CCN([C@@H](C)c4cc5c(-c6ccc(N)nc6)ccnc5n4C)CC3)cc2)CC1 (single isomer, unassigned) [Example 3e64]	nM	2
C[C@H]1CN(Cc2ccc3c(c2)n(C)c(=O)n3C2CCC(=O)NC2=O)CCN1CC1CCN(C(=O)c2ccc(N3CCN(Cc4cc5c(-c6ccc(N)nc6)ccnc5n4C)CC3)cc2)CC1 (some centres unmarked) [Example 3h14]	nM	1.1
C[C@H]1CN(Cc2cc3c(cc2F)n(C2CCC(=O)NC2=O)c(=O)n3C)CCN1CC1CCN(C(=O)c2ccc(C3CCN([C@@H](C)c4cc5c(-c6ccc(N)nc6)ccnc5n4C)CC3)cc2)CC1 (mixture of isomers) [Example 3e34]	nM	0.4
COc1nc(N)ccc1-c1ccnc2c1cc([C@H](C)N1CCC(c3ccc(C(=O)N4CCC(CN5CCN(Cc6ccc7c(c6)n(C)c(=O)n7C6CCC(=O)NC6=O)C[C@@H]5C)CC4)cc3)CC1)n2C (some centres unmarked) [Example 3e41]	nM	0.2
CC[C@H]1CN(Cc2ccc3c(c2)n(C)c(=O)n3C2CCC(=O)NC2=O)CCN1CC1CCN(C(=O)c2ccc(C3CCN([C@@H](C)c4cc5c(-c6ccc(N)nc6)ccnc5n4C)CC3)cc2)CC1 (some centres unmarked) [Example 3e23]	nM	0.8
[2H]C([2H])([2H])n1c(=O)n(C2CCC(=O)NC2=O)c2ccc(CN3CCN(CC4CCN(C(=O)c5ccc(C6CCN([C@@H](C)c7cc8c(-c9ccc(N)nc9)ccnc8n7C)CC6)cc5)CC4)CC3)cc21 (some centres unmarked) [Example 3e26]	nM	1.1

====

# System: eotaxin-3 release
# measurement-notes: Human whole blood eotaxin-3 assay (IL-4 stimulated)
# Type: cell-based
# details: human whole blood, IL-4 0.4 nM, 48 hours; geometric mean; given for compounds with >80% Emax; read-out: Eotaxin-3 EC50
pEC50: −log10 of the molar value.

compound	target-desc	pEC50
CNc1ccc(-c2ccnc3c2cc([C@H](C)N2CC=C(c4c(C)cc(C(=O)N5CCC(CN6CCN(Cc7ccc8c(c7)C7(CCC7)C(=O)N8C7CCC(=O)NC7=O)C[C@@H]6C)CC5)cc4F)CC2)n3C)cn1 (stereo partly shown)	eotaxin-3 release	8.06
C[C@H]1CN(Cc2ccc3c(c2)C(C)(C)C(=O)N3C2CCC(=O)NC2=O)CCN1CC1CCN(C(=O)c2ccc(C3CCN([C@@H](C)c4cc5c(-c6ccc(N)nc6)ccnc5n4C)CC3)cc2)CC1 (stereo partly shown)	eotaxin-3 release	7.83
CC[C@H]1CN(Cc2ccc3c(c2)n(C)c(=O)n3[C@H]2CCC(=O)NC2=O)CCN1CC1CCN(C(=O)c2ccc(C3CCN([C@@H](C)c4cc5c(-c6ccc(N)nc6)ccnc5n4C)CC3)cc2)CC1 (single isomer, unassigned)	eotaxin-3 release	8.08
C[C@@H](c1cc2c(-c3ccc(N)nc3)ccnc2n1C)N1CCC(c2ccc(C(=O)N3CCC(CN4CCN(Cc5ccc6c(c5)n(C)c(=O)n6C5CCC(=O)NC5=O)CC4C(F)(F)F)CC3)cc2)CC1 (stereo partly shown)	eotaxin-3 release	8.03

====

# target-desc: STAT6 (Homo sapiens (Human), UniProt P42226)
# measurement-notes: STAT6 degrader assay (HiBiT, HeLa LgBiT clone 4.14)
# Assay type: cell-based
# details: HeLa LgBiT clone 4.14, 4-24 h; geometric mean; given for compounds with >80% Emax; read-out: STAT6 degradation DC50
Exam item: assign 1 (yes) to entries whose DC50 is below 2 nM and 0 (no) to entries at or above 2 nM. Note that a value of exactly 2 nM receives 0 (no).

molecule	label-class
CN(C(=O)c1ccc(C2CCN(Cc3cc4c(-c5ccc(N)nc5)ccnc4n3C)CC2)cc1)c1ccc(C2CCN(Cc3ccc4c(c3)n(C)c(=O)n4C3CCC(=O)NC3=O)CC2)cc1 (stereo not shown)	1 (yes)
CNc1ccc(-c2ccnc3c2cc(CN2CCC(c4c(F)cc(C(=O)N5CCC(CN6CCN(Cc7ccc8c(c7)C7(CC7)C(=O)N8C7CCC(=O)NC7=O)C[C@@H]6C)CC5)cc4F)CC2)n3C)cn1 (stereo partly shown)	1 (yes)
COC[C@H]1CN(Cc2ccc3c(c2)n(C)c(=O)n3C2CCC(=O)NC2=O)CCN1CC1CCN(C(=O)c2ccc(C3CCN([C@@H](C)c4cc5c(-c6ccc(N)nc6)ccnc5n4C)CC3)cc2)CC1 (stereo partly shown)	1 (yes)
C[C@H]1CN(Cc2ccc3c(c2)C(C)(C)C(=O)N3[C@H]2CCC(=O)NC2=O)CCN1CC1CCN(C(=O)c2ccc(C3CCN([C@@H](C)c4cc5c(-c6ccc(N)nc6)ccnc5n4C)CC3)cc2)CC1	0 (no)
C[C@H]1CN(Cc2ccc3c(c2)n(C)c(=O)n3C2CCC(=O)NC2=O)CCN1CC1(F)CCN(C(=O)c2ccc(C3CCN([C@@H](C)c4cc5c(-c6ccc(N)nc6)ccnc5n4C)CC3)cc2)CC1 (stereo partly shown)	1 (yes)
Cn1c(CN2CCC(c3ccc(-c4nnc5ccc(N6CCC(CN7CCN(Cc8ccc9c(c8)n(C)c(=O)n9C8CCC(=O)NC8=O)CC7)CC6)nn45)cc3)CC2)cc2c(-c3ccc(N)nc3)ccnc21 (stereo not shown)	1 (yes)
C[C@@H](c1cc2c(-c3ccc(N)nc3)ccnc2n1C)N1CCC(c2ccc(C(=O)N3CCC(CN4CCN(Cc5cc6c(cc5F)N(C5CCC(=O)NC5=O)C(=O)C65CC5)CC4)CC3)cc2)CC1 (stereo partly shown)	0 (no)
